- target system: UniProt P01116
- Sequence (P01116 whole entry): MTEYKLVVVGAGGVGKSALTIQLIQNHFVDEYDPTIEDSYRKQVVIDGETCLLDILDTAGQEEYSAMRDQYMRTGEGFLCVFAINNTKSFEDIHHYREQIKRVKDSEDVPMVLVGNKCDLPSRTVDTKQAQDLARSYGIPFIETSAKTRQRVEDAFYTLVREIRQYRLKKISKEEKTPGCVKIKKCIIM
- measurement description: Binding to KRAS by surface plasmon resonance (SPR), Single Cycle Kinetics
- reported conditions: SPR, Single Cycle Kinetics, GDP-bound KRAS wild-type protein; read-out: KRAS KD
*1 amine or outer side, *2 acyl side, *3 side chain or, on linkers, in order; H or OH if unused. Where a SMILES comes first, the peptide text is derived from it. Bridges are numbered along the chain shown (N, C = ends). [ ]: non-standard residue; d: D form. The star is where a group is joined. hPhe(3,5-F2-4-CF3) = N[C@@H](CCc1cc(F)c(C(F)(F)F)c(F)c1)C(=O)O; hPhe(3-Cl-4-CF3) = N[C@@H](CCc1ccc(C(F)(F)F)c(Cl)c1)C(=O)O; NPrPhe(4-CF3) = CCCN[C@@H](Cc1ccc(C(F)(F)F)cc1)C(=O)O; X29 = CN([C@@H](CCCC=[*:3])C(=O)[*:2])[*:1]; dαMeAlg = C[C@](CC=[*:3])(N[*:1])C(=O)[*:2]; NMeGly(cPent) = CN[C@H](C(=O)O)C1CCCC1; Hyp = O=C(O)[C@@H]1C[C@@H](O)CN1; NMeD = CN[C@@H](CC(=O)O)C(=O)O; NMeL = CN[C@@H](CC(C)C)C(=O)O; Morpholide = C1CN(*)CCO1; Ac5c = NC1(C(=O)O)CCCC1; Sar = CNCC(=O)O
attribute measured: Kd (nM)
Express it in nM; write the number only.

Recorded Kd, per entry:
>  <compound>
CCCN1C(=O)CN(C)C(=O)CN(C)C(=O)[C@H]([C@@H](C)CC)NC(=O)[C@@H]2CCCC=CC[C@@](C)(NC(=O)[C@@H]3C[C@@H](OCC)CN3C(=O)[C@H](CCc3cc(F)c(C(F)(F)F)c(F)c3)NC(=O)CN(C)C(=O)[C@@H]1Cc1ccc(C(F)(F)F)cc1)C(=O)N(C)[C@@H](C1CCCC1)C(=O)N(C)[C@H](C(=O)N1CCOCC1)CC(=O)N2C [PP0901] ([X29]I[Sar][Sar][NPrPhe(4-CF3)][Sar][hPhe(3,5-F2-4-CF3)][Hyp](Et)[dαMeAlg][NMeGly(cPent)][NMeD]-Morpholide; staple 1-9; lactam N-11)

>  <target system>
UniProt P01116

>  <unit>
nM

>  <Kd>
3

$$$$
>  <compound>
CC[C@H](C)[C@@H]1NC(=O)[C@H](CC(C)C)N(C)C(=O)C[C@@H](C(=O)N(C)C)N(C)C(=O)[C@H](C2CCCC2)N(C)C(=O)C2(CCC2)NC(=O)[C@@H]2C[C@@H](C)CN2C(=O)[C@H](CCc2ccc(C(F)(F)F)c(Cl)c2)NC(=O)CN(C)C(=O)[C@H](Cc2ccc(C)cc2)N2CC/C=C\C[C@@H](C2=O)N(C)C(=O)CN(C)C1=O

>  <target system>
UniProt P01116

>  <unit>
nM

>  <Kd>
0.096

$$$$
>  <compound>
CCCOC[C@H]1C(=O)N[C@@H]([C@@H](C)CC)C(=O)N(C)CC(=O)N(C)[C@H]2C/C=C\CCN(C2=O)[C@@H](CC2CCC(F)(F)CC2)C(=O)N(C)CC(=O)N[C@@H](CCc2ccc(C(F)(F)F)c(OC)c2)C(=O)N2C[C@@H](C)C[C@H]2C(=O)NC2(CC(C)(C)C2)C(=O)N(C)[C@@H](C(CC)CC)C(=O)N(C)[C@H](C(=O)N(C)C)CC(=O)N1C

>  <target system>
UniProt P01116

>  <unit>
nM

>  <Kd>
1.6

$$$$
>  <compound>
CCC[C@H]1C(=O)N[C@@H]([C@@H](C)CC)C(=O)N2CCC[C@H]2C(=O)N(C)[C@H]2C/C=C\CCN(C2=O)[C@@H](Cc2ccc(C(F)(F)F)cc2)C(=O)N(C)CC(=O)N[C@@H](CCc2cc(F)c(C(F)(F)F)c(F)c2)C(=O)N2C[C@H](OCC)C[C@H]2C(=O)N(C)C2(CCC2)C(=O)N(C)[C@@H](C2CCCC2)C(=O)N(C)[C@H](C(=O)N2CCCC2)CC(=O)N1C

>  <target system>
UniProt P01116

>  <unit>
nM

>  <Kd>
0.27

$$$$
>  <compound>
CC[C@H](C)[C@@H]1NC(=O)[C@H](C(C)C)N(C)C(=O)C[C@@H](C(=O)N(C)CC)N(C)C(=O)[C@H](C2CCCC2)N(C)C(=O)C2(CC(C)(C)C2)NC(=O)[C@@H]2C[C@H](C)CN2C(=O)[C@H](CCc2ccc(C(F)(F)F)c(OC)c2)NC(=O)CN(C)C(=O)[C@H](Cc2ccc(C(F)(F)F)cc2)N2CC/C=C\C[C@@H](C2=O)N(C)C(=O)CN(C)C1=O

>  <target system>
UniProt P01116

>  <unit>
nM

>  <Kd>
0.34

$$$$
>  <compound>
CCCN(C)C(=O)[C@@H]1CC(=O)N(C)[C@@H](C(C)C)C(=O)N[C@@H]([C@@H](C)CC)C(=O)N(C)CC(=O)N(C)[C@H]2C/C=C\CCN(C2=O)[C@@H](Cc2ccc(C(F)(F)F)cc2)C(=O)N(C)CC(=O)N[C@@H](CCc2cc(F)c(C(F)(F)F)c(F)c2)C(=O)N2C[C@@H](C)C[C@H]2C(=O)NC2(CCC2)C(=O)N(C)[C@@H](C2CCCC2)C(=O)N1C

>  <target system>
UniProt P01116

>  <unit>
nM

>  <Kd>
0.29

$$$$
>  <compound>
CCO[C@@H]1C[C@H]2C(=O)NC3(CC(C)(C)C3)C(=O)N(C)[C@@H](C(CC)CC)C(=O)N(C)[C@H](C(=O)N3CCCC3)CC(=O)N(C)[C@@H](COC)C(=O)N[C@@H]([C@@H](C)CC)C(=O)N(C)CC(=O)N(C)[C@H]3C/C=C\CCN(C3=O)[C@@H](Cc3ccc(C(F)(F)F)cc3)C(=O)N(C)CC(=O)N[C@@H](CCc3ccc(Cl)c(Cl)c3)C(=O)N2C1

>  <target system>
UniProt P01116

>  <unit>
nM

>  <Kd>
0.4

$$$$
>  <compound>
CCCN1C(=O)CN(C)C(=O)[C@H](C)NC(=O)[C@H]([C@@H](C)CC)NC(=O)[C@H](CC(C)C)N(C)C(=O)C[C@@H](C(=O)N2CCOCC2)N(C)C(=O)[C@H](C2CCCC2)N(C)C(=O)C2(CCCC2)NC(=O)[C@@H]2CCCN2C(=O)[C@H](CCc2ccc(C(F)(F)F)c(Cl)c2)NC(=O)CN(C)C(=O)[C@@H]1Cc1ccc(C(F)(F)F)cc1 [PP1971] ([NMeL]IA[Sar][NPrPhe(4-CF3)][Sar][hPhe(3-Cl-4-CF3)]P[Ac5c][NMeGly(cPent)][NMeD]-Morpholide; lactam N-11)

>  <target system>
UniProt P01116

>  <unit>
nM

>  <Kd>
5

$$$$

Query: Look up Kd of CC[C@H](C)[C@@H]1NC(=O)[C@@H]2CCCc3ccc(cc3)C[C@@H](C(=O)N(C)CC(=O)N[C@@H](CCc3ccc(C(F)(F)F)c(OC)c3)C(=O)N3C[C@H](OC4CCC4)C[C@H]3C(=O)NC3(CC(C)(C)C3)C(=O)N(C)[C@@H](C3CCCC3)C(=O)N(C)[C@H](C(=O)N(C)CC)CC(=O)N2C)N2CC/C=C\C[C@@H](C2=O)N(C)C(=O)CN(C)C1=O and report it.
Response: 0.11

Query: Complete the entry with Kd for C#CC[C@H]1C(=O)N[C@@H]([C@@H](C)CC)C(=O)N(C)CC(=O)N(C)[C@H]2C/C=C\CCN(C2=O)[C@@H](Cc2ccc(C(F)(F)F)cc2)C(=O)N(C)CC(=O)N[C@@H](CCc2cc(F)c(C(F)(F)F)c(F)c2)C(=O)N2C[C@H](OCC)C[C@H]2C(=O)NC2(CCC2)C(=O)N(C)[C@@H](C2CCCC2)C(=O)N(C)[C@H](C(=O)N(C)C)CC(=O)N1C
Response: 0.054
